testMethodNotes: Caco-2 permeability assay
Type: in vitro ADME
experimentalParameters: human, Caco-2, Caco-2, A-B; read-out: Recovery A-B%
recovery at 2 h, 5 μM values by entry

| smilesString | recovery at 2 h, 5 μM |
| --- | --- |
| [2H]C1([2H])N(C)C([2H])([2H])C([2H])([2H])N(c2ccc(OC(F)(F)F)c(Nc3ncc4c(n3)-c3c(c(C(N)=O)nn3CCO)CC4)c2)C1([2H])[2H] | 79.7% |
| C[C@H]1O[C@@H](O[C@H]2[C@@H](O)C[C@H](O[C@H]3[C@@H](O)C[C@H](O[C@H]4CC[C@@]5(C)[C@H](CC[C@@H]6[C@@H]5C[C@@H](O)[C@]5(C)[C@@H](C7=CC(=O)OC7)CC[C@]65O)C4)O[C@@H]3C)O[C@@H]2C)C[C@H](O)[C@@H]1O | 78.5% |
| CN1CCN(c2ccc(OC(F)(F)F)c(Nc3ncc4c(n3)-c3c(c(C(N)=O)nn3CCO)CC4)c2)CC1 | 71.6% |

====

// values below are reported Papp B→A at 2 h, 5 μM
testMethodNotes: Caco-2 permeability assay
Type: in vitro ADME
experimentalParameters: human; Caco-2, 5 μM, 2 hours

| molecule | Papp B→A at 2 h, 5 μM (×10⁻⁶ cm/s) |
| --- | --- |
| CC(C)NCC(O)COc1cccc2ccccc12 (stereo not shown) | 14.7 |
| C[C@H]1O[C@@H](O[C@H]2[C@@H](O)C[C@H](O[C@H]3[C@@H](O)C[C@H](O[C@H]4CC[C@@]5(C)[C@H](CC[C@@H]6[C@@H]5C[C@@H](O)[C@]5(C)[C@@H](C7=CC(=O)OC7)CC[C@]65O)C4)O[C@@H]3C)O[C@@H]2C)C[C@H](O)[C@@H]1O | 26.1 |
| CN1CCN(c2ccc(OC(F)(F)F)c(Nc3ncc4c(n3)-c3c(c(C(N)=O)nn3CCO)CC4)c2)CC1 | 34.2 |
| [2H]C1([2H])N(C)C([2H])([2H])C([2H])([2H])N(c2ccc(OC(F)(F)F)c(Nc3ncc4c(n3)-c3c(c(C(N)=O)nn3CCO)CC4)c2)C1([2H])[2H] | 34.7 |

====

Reported pIC50, CLK1 (Homo sapiens, UniProt P49759).
pIC50: −log10 of the molar value.

| smilesString | pIC50 |
| --- | --- |
| [2H]C1([2H])N(C)C([2H])([2H])C([2H])([2H])N(c2ccc(OC(F)(F)F)c(Nc3ncc4c(n3)-c3c(c(C(N)=O)nn3CCO)CC4)c2)C1([2H])[2H] | 6.71 |
| CN1CCN(c2ccc(OC(F)(F)F)c(Nc3ncc4c(n3)-c3c(c(C(N)=O)nn3CCO)CC4)c2)CC1 | 6.63 |

====

Listed below: IC50 values for each entry.
Test system: PSN1
testMethodNotes: Cell viability (CellTiter-Glo, 72 h), PSN1
Assay type: cell-based, Human
experimentalParameters: Homo sapiens; PSN1, 72 hours
Procedure: Human pancreatic cancer cell lines (PSN1, PANC-1, Panc 04.03, MIA PaCa-2, BxPC-3, and Capan-1) were cultured in their respective culture media. PSN1 cell lines were maintained in RPMI 1640 + 10%FBS. MIA PaCa-2 cells were cultured in DMEM+10%FBS+5% horse serum. Panc 04.03 cells were grown in RPMI 1640 + 15%FBS+10μg/mL Insulin. PANC-1 cells were maintained in DMEM+10%FBS. BxPC-3 cells were cultured in RPMI 1640 + 10%FBS. Capan-1 cells were grown in IMDM+20%FBS. […]
parameter: IC50 (nM)

| smilesString | measuredValue |
| --- | --- |
| [2H]C1([2H])N(C)C([2H])([2H])C([2H])([2H])N(c2ccc(OC(F)(F)F)c(Nc3ncc4c(n3)-c3c(c(C(N)=O)nn3CCO)CC4)c2)C1([2H])[2H] | 60.7 |
| CN1CCN(c2ccc(OC(F)(F)F)c(Nc3ncc4c(n3)-c3c(c(C(N)=O)nn3CCO)CC4)c2)CC1 | 48.9 |
